Hello, the source for this data is patent US9309222B2, in case you need it.

# tested.target: human RORγt LBD (Homo sapiens)
# Sequence (P51449 258-518): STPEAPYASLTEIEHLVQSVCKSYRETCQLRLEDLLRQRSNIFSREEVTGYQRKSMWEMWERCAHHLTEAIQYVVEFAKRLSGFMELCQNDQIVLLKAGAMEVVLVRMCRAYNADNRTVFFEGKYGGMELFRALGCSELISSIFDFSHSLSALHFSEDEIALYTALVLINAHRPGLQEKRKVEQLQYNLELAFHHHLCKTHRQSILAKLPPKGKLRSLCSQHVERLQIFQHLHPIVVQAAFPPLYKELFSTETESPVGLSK
# experiment.summary: RORγt reporter assay (GAL4-RORγt LBD luciferase in HEK293T cells)
# condition.set: HEK293T cells, 24 hours compound treatment
For each entry below, report its log10(IC50) value.
Lab note - IC50 converted to log10 from values in nM.

Exam item: Provide log10(IC50), system human RORγt LBD (Homo sapiens), entry Cn1cncc1C(O)(c1ccc2nc(Cl)c(-c3ccccc3)c(Cl)c2c1)c1cnccn1 (centres unmarked)
Marked response: 2.67

Exam item: Provide log10(IC50), system human RORγt LBD (Homo sapiens), entry OC(c1ccc(Cl)nc1)(c1cccc(Cl)c1)c1ccc2nc(Cl)c(-c3ccccc3)c(Cl)c2c1 (centres unmarked)
Marked response: 2.23

Exam item: Provide log10(IC50), system human RORγt LBD (Homo sapiens), entry Cn1cncc1C(O)(c1ccc(C(F)(F)F)nc1)c1ccc2nc(C(F)(F)F)c(-c3ccccc3)c(Cl)c2c1 (centres unmarked)
Marked response: 2.15

Exam item: Provide log10(IC50), system human RORγt LBD (Homo sapiens), entry COc1nc2c(C)cc(C(O)(c3ccc(F)cc3)c3cncn3C)cc2c(Cl)c1-c1cccc(F)c1 (single isomer, unassigned) [Example 178b]
Marked response: 2.79

Exam item: Provide log10(IC50), system human RORγt LBD (Homo sapiens), entry Cc1cc(C(O)(c2ccc(C(F)(F)F)nc2)c2cncn2C)cc2c(C#N)c(-c3ccc(F)cc3)c(C#N)nc12 (single isomer, unassigned) [Example 184b]
Marked response: 3.48

Exam item: Provide log10(IC50), system human RORγt LBD (Homo sapiens), entry CC(C)Oc1c(-c2ccccc2)c(Cl)nc2ccc(C(O)(c3ccncc3)c3cncn3C)cc12 (centres unmarked)
Marked response: 2.81

Exam item: Provide log10(IC50), system human RORγt LBD (Homo sapiens), entry COc1nc2c(C)cc(C(O)(c3ccc(C(F)(F)F)nc3)c3cncn3C)cc2c(Cl)c1-c1cccc(F)c1 (single isomer, unassigned) [Example 177b]
Marked response: 2.60

Exam item: Provide log10(IC50), system human RORγt LBD (Homo sapiens), entry OC(c1ccncc1)(c1ccc2nc(Cl)c(-c3ccccc3)c(Cl)c2c1)c1ccccn1 (centres unmarked)
Marked response: 3.62

Exam item: Provide log10(IC50), system human RORγt LBD (Homo sapiens), entry CC(=O)N1CCCC(C(O)(c2cccnc2)c2ccc3nc(Cl)c(-c4ccccc4)c(Cl)c3c2)C1 (centres unmarked)
Marked response: 2.57

Exam item: Provide log10(IC50), system human RORγt LBD (Homo sapiens), entry Cc1cc(C(O)(c2ccnc(C(F)(F)F)c2)c2cncn2C)cc2c(Cl)c(-c3ccccc3)c(Cl)nc12 (centres unmarked)
Marked response: 2.08

Exam item: Provide log10(IC50), system human RORγt LBD (Homo sapiens), entry Cn1cncc1C(O)(c1ccnnc1)c1ccc2nc(Cl)c(-c3ccccc3)c(Cl)c2c1 (centres unmarked)
Marked response: 2.34

Exam item: Provide log10(IC50), system human RORγt LBD (Homo sapiens), entry OC(c1ccc(F)cc1)(c1cccnc1)c1ccc2nc(Cl)c(-c3ccccc3)c(Cl)c2c1 (centres unmarked)
Marked response: 2.34

Exam item: Provide log10(IC50), system human RORγt LBD (Homo sapiens), entry N#Cc1nc2ccc(C(O)(c3ccc(C(N)=O)nc3)c3cccc(Cl)c3)cc2c(C#N)c1-c1ccccc1 (centres unmarked)
Marked response: 2.58

Exam item: Provide log10(IC50), system human RORγt LBD (Homo sapiens), entry Oc1ccc(C(O)(c2cccnc2)c2ccc3nc(Cl)c(-c4ccccc4)c(Cl)c3c2)cc1 (centres unmarked)
Marked response: 2.41
